Reference source: patent US9073911B2

Molecular target: rat TAAR1 (Rattus norvegicus (Rat), UniProt Q923Y9)
Sequence (Q923Y9 whole entry): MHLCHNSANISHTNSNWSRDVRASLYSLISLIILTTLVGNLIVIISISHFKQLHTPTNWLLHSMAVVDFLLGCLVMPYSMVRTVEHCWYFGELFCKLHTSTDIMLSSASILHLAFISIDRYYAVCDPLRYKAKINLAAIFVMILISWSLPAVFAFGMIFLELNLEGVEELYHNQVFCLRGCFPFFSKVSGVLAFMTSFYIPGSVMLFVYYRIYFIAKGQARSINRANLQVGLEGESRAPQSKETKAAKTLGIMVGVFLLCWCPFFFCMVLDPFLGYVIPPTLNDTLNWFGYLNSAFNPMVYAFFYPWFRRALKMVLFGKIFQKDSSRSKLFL
Assay: Radioligand binding assay on rat TAAR1
Settings: membranes of HEK-293 cells stably expressing rat TAAR1; second value of cell mouse/rat
Where a name gives a salt, the structure may show the parent alone.
Reported Ki values follow for various compounds
assay_endpoint: Ki (µM)

INSERT INTO results (compound, unit_tag, readout_number) VALUES
  ('COc1cccc(-c2cc(C(=O)Nc3ccc([C@H]4CNCCO4)cc3)n[nH]2)c1 [Example 4, hydrochloride]', 'µM', 0.0022),
  ('COc1ccc(-c2cc(C(=O)Nc3ccc([C@H]4CNCCO4)cc3)[nH]n2)cc1OC [Example 11, hydrochloride]', 'µM', 0.0127),
  ('O=C(Nc1ccc([C@H]2CNCCO2)cc1)c1cc(-c2cccc(OC(F)F)c2)n[nH]1 [Example 40, hydrochloride]', 'µM', 0.0013),
  ('O=C(Nc1ccc([C@H]2CNCCO2)cc1)c1ccn(-c2ccc(Cl)cn2)n1 [Example 32, hydrochloride]', 'µM', 0.0011),
  ('O=C(Nc1ccc([C@H]2CNCCO2)cc1)c1ccn(-c2cnc(Cl)cn2)n1 [Example 50, hydrochloride]', 'µM', 0.0091),
  ('O=C(Nc1ccc([C@H]2CNCCO2)cc1)c1ccnn1-c1ccccc1 [Example 30, hydrochloride]', 'µM', 1.32),
  ('CCn1nc(-c2cccc(C#N)c2)cc1C(=O)Nc1ccc([C@H]2CNCCO2)cc1 [Example 25, hydrochloride]', 'µM', 0.0078),
  ('O=C(Nc1ccc([C@H]2CNCCO2)cc1)c1ccn(-c2ccc(C(F)(F)F)cn2)n1 [Example 33, hydrochloride]', 'µM', 0.0016),
  ('Cn1nc(-c2ccccc2)cc1C(=O)Nc1ccc([C@H]2CNCCO2)cc1 [Example 5, hydrochloride]', 'µM', 0.0045),
  ('O=C(Nc1ccc([C@@H]2CNCCO2)cc1)c1ccn(-c2ccc(C(F)(F)F)cn2)n1 [Example 35, hydrochloride]', 'µM', 0.0006),
  ('O=C(Nc1ccc([C@@H]2CNCCO2)cc1)c1ccn(-c2ccc(OC(F)F)cc2)n1 [Example 46, hydrochloride]', 'µM', 0.0006),
  ('Cn1nc(-c2ccccc2)cc1C(=O)Nc1ccc([C@@H]2CNCCO2)cc1 [Example 19, hydrochloride]', 'µM', 0.0028),
  ('O=C(Nc1ccc([C@H]2CNCCO2)cc1)c1cc(-c2ccccc2F)n[nH]1 [Example 8, hydrochloride]', 'µM', 0.0073);
